FYI, the data here is from PubChem BioAssay (NCI).

Test system: UACC-62 melanoma
Test: NCI tumour cell line growth inhibition, 48 h
ENDPOINT: TGI

Req: Request - read-out TGI | tested on UACC-62 melanoma | molecule "N#Cc1ncn(CCO)c1N"
Resp: > 100 µM

Req: Please state recorded TGI (tested on UACC-62 melanoma) of CCN(CC)c1ccc(C2NC(=O)c3ccccc3N2)cc1 (stereo not given)
Resp: > 100 µM

Req: Fill in the recorded TGI for this molecule, with UACC-62 melanoma as test system: "C[C@@H](NC(=O)c1ncnc(N)c1Cl)c1ncc(C(=O)Nc2cc(C(F)(F)F)c(Cl)cn2)s1"
Resp: 8.7 µM

Req: Look up TGI with UACC-62 melanoma for this molecule: "NC(=O)C(=CNC(=S)Nc1ccc(S(=O)(=O)Nc2ccccn2)cc1)C(N)=O"
Resp: > 100 µM

----------
Tested on: A549 NSCLC
Assay: NCI tumour cell line growth inhibition, 48 h
ENDPOINT: TGI

Here is how some molecules turned out for TGI.
- CC/C(=N/O)c1ccc2[nH]c3c(C)cc([N+](=O)[O-])c(C)c3c2c1: > 100 µM
- CCOc1ccc(/C=C(\Cl)c2ccc(OC)cc2)cc1: > 100 µM
- CN(C)Cc1ccc(C(C)(C)C)cc1-c1cc(C(C)(C)C)ccc1CN(C)C: > 100 µM
- CC1=CC(O)C(C(O)(C(F)(F)F)C(F)(F)F)C(C)(C)C1 (configuration not stated): > 10 µM

Read the next record carefully.
Req: Param item = CC(c1ccccc1)[C@@H](C(=O)Nc1ccc(I)cc1F)N1C(=O)N[C@H](c2ccc(OC[C@H](O)CO)cc2)C1=O (some centres not stated) ; retrieve measured TGI.
Resp: > 25 µM

----------
System: U251 CNS
Assay: NCI tumour cell line growth inhibition, 48 h
ENDPOINT: TGI

- CCCCCCNC(=S)N/N=C(\C)c1ccccn1: 14.2 µM
- O=C(Nc1cccc(-n2cc(-c3ccncc3)c(-c3ccc(O)c(Cl)c3)n2)c1)c1cc(C(F)(F)F)cc(C(F)(F)F)c1: > 50 µM
- CCCCCCCCCC(CCCC(O)CC(=O)O)OC1OC(COC2OC(C)C(OC(C)=O)C(O)C2O)C(O)C(O)C1OC1OC(CO)C(O)C(O)C1OC1OC(C)C(OC(=O)CC(C)C)C(O)C1O (stereo unspecified): > 35 µM

Req: Given "Clc1ccc2ncc(-c3cccc(NC4CNC4)n3)n2c1" , state its recorded TGI.
Resp: 48.7 µM

Req: Fill in: TGI of "COc1ccc2nc(-c3ccccc3)cc(Nc3cccc(C(C)=O)c3)c2c1" is ___
Resp: 16.8 µM

Req: Quick check: TGI of "Oc1cnc2c(O)cccc2c1" ?
Resp: > 100 µM

Req: // TGI lookup, key: "COc1cc(C2C(C(=O)Nc3ccc([N+](=O)[O-])cc3)=C(C)NC(C)=C2C(=O)Nc2ccc([N+](=O)[O-])cc2)ccc1O"
Resp: 33.8 µM

Req: Suppose we examine the compound CC(C)CC1c2[nH]c3ccccc3c2C[C@H]2C(=O)NC(CCCCNC(=O)OC(C)(C)C)C(=O)N12 (stereo partly specified) ; what TGI value has been reported?
Resp: > 100 µM

Req: For the compound shown here, "COc1ccc(Cn2cc3c(c2)-c2oncc2CC3)cc1OC" , give the reported TGI.
Resp: > 28.1 µM

Req: Name the recorded TGI for CN(C)C=NC1CCC(C(C)(C)C)CC1 (stereo unspecified) .
Resp: 31.2 µM

Req: Bench note: what TGI did "CCCCNC(=NCc1ccccc1)NC#N" show?
Resp: > 100 µM
